experimental_endpoint: melting point

CC(=O)NCCCC(=O)N1CCCC2=C1CCc1cc(Cl)ccc12 = 142 to 143 °C
CCOC(=O)CCOc1cccc2c1CCCC2=O = 57 to 59 °C
CCCC(=O)c1ccc(OCCCCCC(=O)O)c(Cl)c1Cl = 94 to 95 °C

Supply reported melting point belonging to this compound: "CC(C)CCc1ccc(C(=S)CC#N)cc1"
62 to 63 °C

Supply reported melting point belonging to this compound: "C=CCN1CCN(c2cc3c(cc2F)c(=O)c(C(=O)O)cn3CC)CC1"
236 °C

Supply reported melting point belonging to this compound: O=C1c2ccccc2OS(=O)N1SC(Cl)(Cl)Cl (stereo unspecified)
65 to 67 °C

Supply reported melting point belonging to this compound: "CSc1nn2c(N)cc(C)nc2c1S(=O)(=O)c1cccs1"
> 230 °C

Supply reported melting point belonging to this compound: CC(C)c1cccc2c1N(CC(=O)N1CC3CCC(CC3)C1)C(=O)C(NC(=O)Nc1cccc(-c3nnn[nH]3)c1)N=C2c1ccccc1F (stereo unspecified)
212 to 222 °C

Supply reported melting point belonging to this compound: "O=C(CN1CCCC1)NCc1ccc2c(c1)-c1[nH]nc(-c3ccsc3)c1C2"
201 to 204 °C

----------
experimental_endpoint: melting point (°C)

a: O=C(Nc1ncc(C(F)(F)F)o1)C1c2ccccc2Oc2c(F)cccc21 (racemic)
b: C=C(C)c1ccc(O)c(-n2nc3ccccc3n2)c1
Please tell me which of the two, a or b , has the higher reported melting point value. Pick one; state its label.
a
(a: 228 °C, b: 124 °C)

----------
experimental_endpoint: melting point

Solved entries:
Oc1ccc(Cl)c(-n2ccnc2)c1 = 204 to 205 °C
Cc1nn(-c2ccc([N+](=O)[O-])cc2F)c(=O)[nH]1 = 211 to 212 °C
O=C(O)COc1c[nH]cc(Cl)c1=O = 253 to 255 °C
CCC(=O)N(CC)c1cccc(-c2ccc3nnc(NC)n3n2)c1 = 172 to 173 °C
Cc1ccc(S(=O)(=O)c2ncc(I)cn2)cc1 = 138 to 139 °C
O=C(O)c1cn(-c2ccc(Cl)cc2)c2c(F)c(F)c(F)cc2c1=O = 117 to 118 °C

Supply reported melting point belonging to this compound: "O=S(=O)(Cl)c1ccc2oc3cc(Br)ccc3c2c1"
191 to 193 °C

Supply reported melting point belonging to this compound: "COC(=O)CCC#Cc1ccc(C(=C2CC(C)(C)CC(C)(C)C2)c2ccc(O)cc2)cc1"
159 to 160 °C

Supply reported melting point belonging to this compound: CCOc1ccc2[nH]c(S(=O)Cc3cccn4ccnc34)nc2c1 (configuration not stated)
186 to 188 °C

Supply reported melting point belonging to this compound: "COc1ccc(C(=O)C2=C(c3ccccc3)c3ccccc3C2)cc1"
114 to 115 °C

Supply reported melting point belonging to this compound: "CC1(C)NC(=O)c2ccc(Oc3nnnn3-c3ccccc3)cc21"
202 to 204 °C

Supply reported melting point belonging to this compound: "CC1(c2ccc3cc(Br)ccc3c2)OCCO1"
80 to 82 °C

Supply reported melting point belonging to this compound: "Brc1ccc2c(c1)OCCN2C1CCOCC1"
66.2 °C

Supply reported melting point belonging to this compound: "CCN(CC)C(=O)c1cn(-c2cccc(Cl)c2)cn1"
105 °C

Supply reported melting point belonging to this compound: COc1cc(C(O)C#Cc2c(C)nc(N)nc2N)cc(OC)c1OC (configuration not stated)
174 to 176 °C

Supply reported melting point belonging to this compound: CC(C)CCN1C(=O)C2(COc3cc4c(cc32)OCCO4)c2c1ccc1ncsc21 (configuration not stated)
169 to 171 °C

Supply reported melting point belonging to this compound: "CS(=O)(=O)NCCCn1c(CCCOc2ccccc2)nc2c(N)nc3ccccc3c21"
176 to 178 °C
